Test system: 786-0 renal
EXPERIMENT: NCI-60 one-dose screen, 48 h
STATED CONDITIONS: 10 µM unless noted
The panel holds about 83,000 compounds, 20% with a hit somewhere; the sample as a whole holds those more often. Active and inactive are the calls of the source. Rule for the calls: active = growth percent below 10; inactive = the rest.
Please state which outcome applies, choosing from active, inactive

**Query** What was the test verdict on `COc1ccc(C(=O)COc2cccc(/C=C3\CSc4ccc(C)cc4C3=O)c2)cc1` ?
**Result** inactive

**Query** What was the test verdict on `Oc1ccc(Cl)cc1CNc1nc2ccccc2[nH]1` ?
**Result** inactive

**Query** What was the test verdict on `N#Cc1ccc(C(F)(F)F)nc1N1CCC(C(=O)Nc2ccc(Cl)cc2)CC1` ?
**Result** inactive

**Query** What was the test verdict on CC(C)NCC(O)COc1ccc(CCOCC2CC2)cc1 (stereo not given) ?
**Result** inactive

**Query** What was the test verdict on `O=C1/C(=C/c2ccc(F)cc2)CN(Cc2cn(CCNc3ccnc4cc(Cl)ccc34)nn2)C/C1=C\c1ccc(F)cc1` ?
**Result** active

###

Tested on: SK-OV-3 ovarian
EXPERIMENT: NCI-60 one-dose screen, 48 h (100 = growth as untreated, 0 = no growth, -100 = all killed)
STATED CONDITIONS: 10 µM
About 83,000 compounds went through this panel and 20% of them were active in at least one assay; those are over-represented in the sample as a whole.
METRIC: growth (%)
Value expressed in %; do not type the unit.

**Query** So what does the record say about growth for CCOC(=O)C(CC(c1ccccc1)N1CCCCC1)[N+](=O)[O-] (stereo not given) ?
**Result** 97.7

**Query** So what does the record say about growth for `O=C(NCc1ccco1)C1CCN(S(=O)(=O)c2ccc(Cl)cc2)CC1` ?
**Result** 94.5

**Query** So what does the record say about growth for `O=C1/C(=C/c2ccccc2F)CNC/C1=C\c1ccccc1F` ?
**Result** -45.1

**Query** So what does the record say about growth for `CCCOC(=O)c1ccc2c(c1)[N+](=O)C(C(=O)c1ccccc1)=C(C(F)(F)F)[N+]2=O` ?
**Result** -99.9

**Query** So what does the record say about growth for `O=C(C[Si](CC(=O)c1cccc(C(F)(F)F)c1)CC(=O)c1cccc(C(F)(F)F)c1)c1cccc(C(F)(F)F)c1` ?
**Result** 98.3

**Query** So what does the record say about growth for COc1ccc(OC2=C(C#N)C(=N)N3c4ccccc4Sc4ccccc4C3N2)cc1 (stereo not given) ?
**Result** 79.3

**Query** So what does the record say about growth for `Cn1c2ccccc2c2nn(Cc3ccccc3)c(=O)nc21` ?
**Result** 105

**Query** So what does the record say about growth for Cc1ccc(S(=O)(=O)N2CCc3ccc(O)c4c3C2CCc2ccccc2-4)cc1 (stereo not given) ?
**Result** 101

**Query** So what does the record say about growth for `COc1cc2nc(N3CCC[C@H](NC4=CC(=O)c5ccccc5C4=O)C3)nc(N)c2cc1OC` ?
**Result** 116

**Query** So what does the record say about growth for `COc1ccc(Sc2ccc3[nH]c(=O)nc(N)c3c2)cc1` ?
**Result** 104

###

System: HOP-92 NSCLC
EXPERIMENT: NCI-60 one-dose screen, 48 h
STATED CONDITIONS: 10 µM unless noted
Compounds without any hit were thinned out: in the full panel of roughly 83,000, 20% have a hit. The source made the active and inactive calls. Rule for the calls: active = growth percent below 10; inactive = the rest.
Please state which outcome applies, choosing from active, inactive

**Query** What was the test verdict on `Cc1ccccc1-n1nnc(C(=O)Nc2nc(-c3ccccc3)c(-c3ccccc3)s2)c1C` ?
**Result** inactive

**Query** What was the test verdict on CC1CCCCN1S(=O)(=O)c1ccc(CN=C=S)cc1 (stereo unspecified) ?
**Result** inactive

**Query** What was the test verdict on O=C(N/N=C/c1ccc(OC(F)F)c(OC2CCCC2)c1)c1cnn2c1NC(c1ccccc1)C2 (stereo unspecified) ?
**Result** inactive

**Query** What was the test verdict on `Cc1nn(-c2ccccc2)c2nc3nc4c(c(N)c3c(-c3ccc(Cl)cc3)c12)CCC4` ?
**Result** inactive

**Query** What was the test verdict on `COc1ccc(-c2c3c(N)c4c(nc3nc3c2c(C)nn3-c2ccccc2)CCCCC4)cc1` ?
**Result** inactive

**Query** What was the test verdict on `Cn1c2c(cc(S(=O)(=O)c3ccccc3)c1=O)CCc1c-2cnn1-c1cccc(Cl)c1` ?
**Result** inactive

**Query** What was the test verdict on `Cc1ccc(NS(=O)(=O)c2ccc(-c3cnc(C4CC4)o3)cc2)cc1` ?
**Result** inactive

**Query** What was the test verdict on CN1CCc2cccc3c2C1Cc1ccc(O)c(O)c1-3 (stereo unspecified) ?
**Result** inactive

**Query** What was the test verdict on `O=C(N/N=C/c1ccc(F)cc1)c1[nH]c2ccc(I)cc2c1-c1ccccc1` ?
**Result** inactive

**Query** What was the test verdict on `Cc1ccc(N(CSc2ccc(Cl)cc2)CSc2ccc(Cl)cc2)cc1` ?
**Result** inactive

**Query** What was the test verdict on `COc1ccc(-c2[nH]ncc2Nc2cc(OC)c(OC)c(OC)c2)cc1` ?
**Result** inactive

**Query** What was the test verdict on `Cc1cc(=O)oc2c1ccc1oc(C(=O)c3ccccc3)c(C)c12` ?
**Result** inactive

**Query** What was the test verdict on `Nc1cc(Br)c(-c2nnc(CCC(=O)c3nc4ccccc4[nH]3)o2)c(Br)c1` ?
**Result** inactive

**Query** What was the test verdict on `Cc1nc2cc(Nc3nc(Nc4ccc(F)cc4)nc(-c4ccc(Cl)cc4)n3)ccc2n1Cc1ccccc1` ?
**Result** inactive

**Query** What was the test verdict on CCC12CCC3c4ccc(O)cc4CCC3C1CC(O)C2O (stereo unspecified) ?
**Result** inactive

**Query** What was the test verdict on `COc1cccc(OC(=O)c2ccccc2)c1OC(=O)c1ccccc1` ?
**Result** inactive

**Query** What was the test verdict on `COc1ccc(-n2ncc3c4nc(OC)c(S(=O)(=O)c5ccccc5)cc4ccc32)cc1` ?
**Result** inactive

**Query** What was the test verdict on CCCCC1COc2cccc3c(SCC(=O)N(C)c4cccc5ccccc45)cc[n+]1c23 (stereo unspecified) ?
**Result** inactive

**Query** What was the test verdict on `C[C@H]1C(=O)C23CCC1C[C@@]21O[C@@H]2C(C)(C)C=CC(=O)C23COC1=O` ?
**Result** inactive

**Query** What was the test verdict on `CCCCC/C=C\C/C=C/CCCCCCCCNC(=O)Nc1ccc([N+](=O)[O-])cc1` ?
**Result** active

**Query** What was the test verdict on `N#Cc1c(O)c2c(c(O)c1C#N)C(=O)c1ccccc1C2=O` ?
**Result** inactive
